ASSAYED TARGET: T1, Cascade- (crRNA-free Cse1-Cse2-Cas7-Cas5-Cas6e) (Escherichia coli (K12; expressed in …, UniProt Q46901;P76632;Q46899;Q46898;Q46897 1-502;1-160;1-363;1-224;1-199)
T1 sequence 1: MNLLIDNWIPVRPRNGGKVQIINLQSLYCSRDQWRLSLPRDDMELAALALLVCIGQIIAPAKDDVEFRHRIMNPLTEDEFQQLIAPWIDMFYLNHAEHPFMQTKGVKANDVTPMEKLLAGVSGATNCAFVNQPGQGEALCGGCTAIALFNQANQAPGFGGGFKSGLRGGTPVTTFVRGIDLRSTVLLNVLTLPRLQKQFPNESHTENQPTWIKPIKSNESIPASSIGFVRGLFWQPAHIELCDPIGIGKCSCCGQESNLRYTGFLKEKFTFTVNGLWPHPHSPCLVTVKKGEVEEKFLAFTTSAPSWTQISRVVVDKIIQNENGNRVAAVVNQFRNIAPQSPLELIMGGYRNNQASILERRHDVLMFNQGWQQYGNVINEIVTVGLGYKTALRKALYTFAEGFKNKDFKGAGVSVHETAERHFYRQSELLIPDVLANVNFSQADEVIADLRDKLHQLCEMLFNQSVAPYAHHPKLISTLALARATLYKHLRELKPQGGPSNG
T1 sequence 2: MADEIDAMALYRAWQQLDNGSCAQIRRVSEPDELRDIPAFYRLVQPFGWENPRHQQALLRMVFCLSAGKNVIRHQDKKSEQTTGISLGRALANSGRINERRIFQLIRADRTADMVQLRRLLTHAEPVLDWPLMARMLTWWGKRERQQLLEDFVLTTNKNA
T1 sequence 3: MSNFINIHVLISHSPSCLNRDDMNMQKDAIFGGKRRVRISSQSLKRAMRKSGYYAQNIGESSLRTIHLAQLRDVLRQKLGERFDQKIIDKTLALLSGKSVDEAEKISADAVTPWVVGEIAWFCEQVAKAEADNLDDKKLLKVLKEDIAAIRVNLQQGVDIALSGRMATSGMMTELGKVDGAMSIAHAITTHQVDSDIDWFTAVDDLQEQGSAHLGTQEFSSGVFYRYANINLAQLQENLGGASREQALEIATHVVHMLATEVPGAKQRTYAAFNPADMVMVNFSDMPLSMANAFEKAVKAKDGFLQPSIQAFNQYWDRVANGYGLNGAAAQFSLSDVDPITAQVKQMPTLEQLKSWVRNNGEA
T1 sequence 4: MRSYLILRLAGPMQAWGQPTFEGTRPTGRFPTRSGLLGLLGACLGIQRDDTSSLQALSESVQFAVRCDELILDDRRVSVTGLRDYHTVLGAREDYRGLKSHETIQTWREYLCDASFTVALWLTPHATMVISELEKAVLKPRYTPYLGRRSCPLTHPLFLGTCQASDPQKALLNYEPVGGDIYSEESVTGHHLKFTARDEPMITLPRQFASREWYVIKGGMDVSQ
T1 sequence 5: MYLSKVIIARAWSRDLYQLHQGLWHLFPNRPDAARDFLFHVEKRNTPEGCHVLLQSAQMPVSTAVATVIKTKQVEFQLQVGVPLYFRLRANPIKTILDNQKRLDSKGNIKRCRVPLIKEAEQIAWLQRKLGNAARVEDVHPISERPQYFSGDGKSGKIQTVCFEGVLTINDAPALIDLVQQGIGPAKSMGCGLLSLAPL
PROTOCOL NOTES: EMSA; EMSA: 20 mM Tris-HCl pH 8, 20 mM NaCl, 10 nM 32P probe, 30 min at 30 or 37 C, 6% native PAGE; loading 10 min at 30 C with crRNA (0.5 uM in Fig 3). Kd values are printed only in Fig 5A (not in the material)
EXPERIMENTAL CONDITIONS: protein: recombinant; tags: N-terminal 6His on Cse1 (CasA); copies: 1;2;6;1;1; label: DNA 5'-32P; guide + blunt duplex

# BINDER, binding result
records = [
    ("crRNA7 (-8/+1G) + g8 dsDNA (mixed) RNA: AUAAACCGCUGUCUUUCGCUGCUGAGGGUGACGAUCCGCCG DNA 1: CAGGGAGTTAAAGGCCGCTTTTGCGGGATCGTCACCCTCAGCAGCGAAAGACAGCATCGGAACGAGGGTAGCAACGGCT DNA 2: AGCCGTTGCTACCCTCGTTCCGATGCTGTCTTTCGCTGCTGAGGGTGACGATCCCGCAAAAGCGGCCTTTAACTCCCTG", "binds"),
    ("crRNA7 (-8/+1C) + g8 dsDNA (mixed) RNA: AUAAACCGCUGUCUUUCGCUGCUGAGGGUGACGAUCCGCCC DNA 1: CAGGGAGTTAAAGGCCGCTTTTGCGGGATCGTCACCCTCAGCAGCGAAAGACAGCATCGGAACGAGGGTAGCAACGGCT DNA 2: AGCCGTTGCTACCCTCGTTCCGATGCTGTCTTTCGCTGCTGAGGGTGACGATCCCGCAAAAGCGGCCTTTAACTCCCTG", "binds"),
]
